test_target: CYP2C8 (Homo sapiens, UniProt P10632)
Sequence (P10632 whole entry): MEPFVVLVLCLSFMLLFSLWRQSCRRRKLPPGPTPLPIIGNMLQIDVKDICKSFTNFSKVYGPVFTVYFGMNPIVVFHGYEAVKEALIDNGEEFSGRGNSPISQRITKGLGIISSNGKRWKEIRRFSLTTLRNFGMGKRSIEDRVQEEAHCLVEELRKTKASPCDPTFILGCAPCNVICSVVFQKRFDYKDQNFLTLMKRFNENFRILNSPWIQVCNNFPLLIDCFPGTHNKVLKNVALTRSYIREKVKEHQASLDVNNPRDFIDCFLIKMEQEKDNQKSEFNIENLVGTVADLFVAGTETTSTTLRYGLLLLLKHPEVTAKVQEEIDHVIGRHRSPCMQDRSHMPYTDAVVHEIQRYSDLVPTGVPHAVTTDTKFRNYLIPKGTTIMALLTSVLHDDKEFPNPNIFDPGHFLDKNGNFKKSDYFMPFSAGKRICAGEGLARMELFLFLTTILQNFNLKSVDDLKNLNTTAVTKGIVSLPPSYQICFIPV
measurement_notes: Time dependent inhibition of CYP2C8 (unknown origin) at 30 uM by LC/MS system
Format: ADME
property_name: inhibition at 30 µM

Input: Fill in inhibition at 30 µM for record CCN(CC)Cc1cc(Nc2ccnc3cc(Cl)ccc23)ccc1O [AMODIAQUINE]
Output: < 10%

Input: Determine its reported inhibition at 30 µM: CCc1ccc(CCOc2ccc(CC3SC(=O)NC3=O)cc2)nc1 (configuration not stated) [PIOGLITAZONE]
Output: < 10%

---

test_target: CYP2B6 (Homo sapiens, UniProt P20813)
Sequence (P20813 whole entry): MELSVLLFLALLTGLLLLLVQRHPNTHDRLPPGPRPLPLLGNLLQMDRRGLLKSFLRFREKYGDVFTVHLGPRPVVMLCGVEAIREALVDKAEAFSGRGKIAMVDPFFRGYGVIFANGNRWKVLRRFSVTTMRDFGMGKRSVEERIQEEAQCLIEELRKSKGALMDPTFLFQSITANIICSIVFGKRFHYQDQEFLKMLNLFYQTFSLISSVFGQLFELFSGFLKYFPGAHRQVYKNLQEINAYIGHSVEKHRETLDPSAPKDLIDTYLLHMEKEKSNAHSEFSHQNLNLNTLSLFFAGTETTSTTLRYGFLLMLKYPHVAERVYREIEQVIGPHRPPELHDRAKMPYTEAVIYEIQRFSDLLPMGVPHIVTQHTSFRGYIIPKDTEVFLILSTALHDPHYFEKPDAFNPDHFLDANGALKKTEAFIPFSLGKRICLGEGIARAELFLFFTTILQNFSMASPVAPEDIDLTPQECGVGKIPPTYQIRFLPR
measurement_notes: Time dependent inhibition of CYP2B6 (unknown origin) at 30 uM by LC/MS system
Assay type: ADME
Give inhibition at 30 µM for every item shown.

Input: Supply inhibition at 30 µM value. Item: Cc1ccc(-c2cc(C(F)(F)F)nn2-c2ccc(S(N)(=O)=O)cc2)cc1
Output: < 10%

Input: Indicate the recorded inhibition at 30 µM value for this compound: C#C[C@]1(O)CC[C@H]2[C@@H]3CCc4cc(O)ccc4[C@H]3CC[C@@]21C
Output: < 10%

---

test_target: CYP2C19 (Homo sapiens)
Sequence (P33261 whole entry): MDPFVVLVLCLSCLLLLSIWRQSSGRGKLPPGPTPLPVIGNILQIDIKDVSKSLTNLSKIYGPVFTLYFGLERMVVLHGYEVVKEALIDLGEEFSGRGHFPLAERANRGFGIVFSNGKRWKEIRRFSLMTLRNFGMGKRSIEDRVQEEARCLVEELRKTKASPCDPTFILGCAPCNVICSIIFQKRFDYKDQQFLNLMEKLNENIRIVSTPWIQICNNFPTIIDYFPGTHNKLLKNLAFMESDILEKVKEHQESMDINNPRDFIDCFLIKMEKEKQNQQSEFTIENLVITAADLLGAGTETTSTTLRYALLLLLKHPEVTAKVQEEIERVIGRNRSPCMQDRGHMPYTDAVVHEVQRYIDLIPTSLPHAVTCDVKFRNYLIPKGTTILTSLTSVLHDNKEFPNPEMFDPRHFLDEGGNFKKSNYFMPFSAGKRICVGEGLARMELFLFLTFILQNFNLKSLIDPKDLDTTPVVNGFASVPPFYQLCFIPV
measurement_notes: in vitro
settings: human liver microsomes
property_name: inhibition at 10 µM

Input: In one line, give reported inhibition at 10 µM of the entry C#C[C@]1(O)CC[C@H]2[C@@H]3CCc4cc(O)ccc4[C@H]3CC[C@@]21C .
Output: < 10%

---

Test system: Liver microsome
measurement_notes: Covalent binding in human liver microsomes measured per mg of protein using radiolabelled compound at 10 uM after 1 hr incubation by liquid scintillation counting
property_name: PB (pmol)
Report the value in pmol with no unit label.

Input: Give the reported PB for this compound. Cc1ccnc2c1NC(=O)c1cccnc1N2C1CC1
Output: 19.1

Input: Supply PB value. Item: Nc1c2c(nc3ccccc13)CCCC2
Output: 137

Input: Give the reported PB for this compound. O=C(O)COc1ccc(C(=O)c2cccs2)c(Cl)c1Cl
Output: 436.7

Input: Quick one: give measured PB for C#C[C@]1(O)CC[C@H]2[C@@H]3CCc4cc(O)ccc4[C@H]3CC[C@@]21C
Output: 937.5

Input: Fill in reported PB for this entry: CC/C(=C(\c1ccccc1)c1ccc(OCCN(C)C)cc1)c1ccccc1
Output: 11.5

Input: Specify PB for COc1cc(C(=O)NS(=O)(=O)c2ccccc2C)ccc1Cc1cn(C)c2ccc(NC(=O)OC3CCCC3)cc12 and stop.
Output: 36.4

Input: Return the recorded PB value; entry: CCCc1nc(C(C)(C)O)c(C(=O)O)n1Cc1ccc(-c2ccccc2-c2nnn[nH]2)cc1
Output: 3.4

Input: Supply measured PB of O=C1NC(=O)C(c2ccccc2)(c2ccccc2)N1 in your reply.
Output: 4.4

Input: Please report PB for the following compound: CCOC(=O)C1=C(COCCN)NC(C)=C(C(=O)OC)C1c1ccccc1Cl (centres undefined)
Output: 7.1

---

System: Liver microsome
measurement_notes: Metabolic activation in human liver microsomes assessed as [3H]GSH adduct formation rate measured per mg of protein at 100 uM by [3H]GSH trapping assay
property_name: Drug metabolism

Guide cases for Drug metabolism, answers given:
# compound, Drug metabolism
measured = [
    ("Cn1c(=O)c2c(ncn2C)n(C)c1=O [CAFFEINE]", "metabolite_not_detected"),
    ("O=C(O)COc1ccc(C(=O)c2cccs2)c(Cl)c1Cl", "4.2 pmol/min"),
    ("CNCCC(Oc1ccc(C(F)(F)F)cc1)c1ccccc1 (stereo not drawn) [FLUOXETINE]", "metabolite_not_detected"),
    ("COc1cc(C(=O)NS(=O)(=O)c2ccccc2C)ccc1Cc1cn(C)c2ccc(NC(=O)OC3CCCC3)cc12 [ZAFIRLUKAST]", "metabolite_not_detected"),
    ("CC[C@H](C)C(=O)O[C@H]1C[C@H](O)C=C2C=C[C@H](C)[C@H](CC[C@@H](O)C[C@@H](O)CC(=O)O)[C@H]21 [PRAVASTATIN]", "metabolite_not_detected"),
]

Input: Output measured Drug metabolism for this item: Cc1ccnc2c1NC(=O)c1cccnc1N2C1CC1 [NEVIRAPINE]
Output: 1.2 pmol/min

Input: Given CCc1ccc(CCOc2ccc(CC3SC(=O)NC3=O)cc2)nc1 (stereo not drawn) [PIOGLITAZONE] , respond with its Drug metabolism.
Output: metabolite_not_detected

Input: Fill in Drug metabolism for record CCN(CC)CCNC(=O)c1ccc(N)cc1 [PROCAINAMIDE]
Output: 41.3 pmol/min

Input: Check the records and state Drug metabolism for CC(C)c1c(C(=O)Nc2ccccc2)c(-c2ccccc2)c(-c2ccc(F)cc2)n1CC[C@@H](O)C[C@@H](O)CC(=O)O [ATORVASTATIN]
Output: 12.7 pmol/min

Input: Annotate the compound O=C1NC(=O)C(c2ccccc2)(c2ccccc2)N1 [PHENYTOIN] with its measured Drug metabolism.
Output: 1.2 pmol/min

Input: Identify measured Drug metabolism corresponding to CCc1oc2ccccc2c1C(=O)c1cc(Br)c(O)c(Br)c1 [BENZBROMARONE]
Output: 3 pmol/min

Input: Complete the entry with Drug metabolism for CC(C)C(=O)Nc1ccc([N+](=O)[O-])c(C(F)(F)F)c1 [FLUTAMIDE]
Output: 2 pmol/min

Input: Please give the documented Drug metabolism of CCCCC(=O)N(Cc1ccc(-c2ccccc2-c2nnn[nH]2)cc1)[C@H](C(=O)O)C(C)C
Output: metabolite_not_detected

Input: For CCN(CC)Cc1cc(Nc2ccnc3cc(Cl)ccc23)ccc1O [AMODIAQUINE] , write its Drug metabolism.
Output: 2.1 pmol/min

Input: Using known records, supply Drug metabolism for COc1cc2c(cc1OC)C(=O)C(CC1CCN(Cc3ccccc3)CC1)C2 (stereo not drawn) [DONEPEZIL]
Output: metabolite_not_detected

The origin of these recorded values is ChEMBL document CHEMBL3526118.
